- System tested: oxytocin receptors (Rattus norvegicus)
- Sequence (P70536 1-388): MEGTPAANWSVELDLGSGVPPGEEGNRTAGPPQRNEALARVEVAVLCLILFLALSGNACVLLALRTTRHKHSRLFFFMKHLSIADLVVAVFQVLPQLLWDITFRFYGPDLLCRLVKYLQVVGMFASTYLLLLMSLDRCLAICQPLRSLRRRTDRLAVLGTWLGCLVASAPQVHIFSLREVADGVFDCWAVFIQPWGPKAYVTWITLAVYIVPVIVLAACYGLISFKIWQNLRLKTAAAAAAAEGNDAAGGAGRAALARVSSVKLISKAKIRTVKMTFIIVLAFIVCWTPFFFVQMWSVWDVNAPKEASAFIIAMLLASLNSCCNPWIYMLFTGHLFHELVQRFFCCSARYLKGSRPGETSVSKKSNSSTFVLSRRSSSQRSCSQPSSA
- Test method notes: Oxytocin Receptor Binding
- Test context: dose 10 μM
Reported endpoint: inhibition at 10 µM (%)

{"columns": ["Compound", "Measurement"],
 "data": [
  ["Cc1ncccc1C(=O)Nc1ccc(C(=O)N2Cc3cccn3Cc3ccccc32)cn1 [Example 329]", 91],
  ["Cc1ccc(F)cc1C(=O)Nc1ccc(C(=O)N2Cc3cccn3Cc3ccccc32)cn1 [Example 1]", 92],
  ["Cc1ccccc1Nc1ccc(C(=O)N2Cc3cccn3Cc3ccccc32)cn1 [Example 301]", 89]
]}
